Target: human HSP90a (recombinant N-terminal nucleotide binding domain) (Homo sapiens (Human), UniProt P07900)
Experiment: Competition fluorescence polarization binding assay with TSD-FP probe
Details: method of Example A-1; incubation time not stated; read-out: Binding Affinity IC50
pIC50: −log10 of the molar value.
metric: pIC50

compound: COc1cccc(-c2cc(F)ccc2[C@H]2Cc3nc(N)nc(C)c3/C(=N/O[C@@H](CCO)C(=O)N(C)C)N2)n1 [Compound 93]
pIC50: 8.10
//
compound: COc1cccc(-c2cc(F)ccc2[C@H]2Cc3nc(N)nc(C)c3/C(=N/OCC3C[C@@H](O)[C@@H](O)C3)N2)n1 (some centres unmarked) [Compound 59]
pIC50: 8.10
//
compound: COc1cccc(-c2cc(F)ccc2[C@H]2Cc3nc(N)nc(C)c3/C(=N/OCC(=O)N(C)C)N2)n1 [Compound 83]
pIC50: 8.10
//
compound: COc1cccc(-c2cc(F)ccc2[C@H]2Cc3nc(N)nc(C)c3/C(=N/OCCCO)N2)n1 [Compound 78]
pIC50: 8.40
//
compound: COc1cccc(-c2cc(F)ccc2[C@H]2Cc3nc(N)nc(C)c3/C(=N/OC[C@H]3O[C@@H](OC)[C@H](O)[C@@H]3O)N2)n1 (mixture of isomers) [Compound 45]
pIC50: 8.00
//
compound: COc1cccc(-c2cc(F)ccc2[C@H]2Cc3nc(N)nc(C)c3/C(=N/OCC(CO)CO)N2)n1 [Compound 35]
pIC50: 7.89

[I] COc1cccc(-c2cc(F)ccc2[C@H]2Cc3nc(N)nc(C)c3/C(=N/OCC(=O)N(C)C[C@H](O)CO)N2)n1 [Compound 96]
[II] COc1cccc(-c2cc(F)ccc2[C@H]2Cc3nc(N)nc(C)c3/C(=N/OCC[C@H](O)CO)N2)n1 [Compound 37]
Exercise: Short answer wanted: higher pIC50, I or II ? Bench note: the answer is the label of the chosen record.
Solution: II
(II: 8.22, I: 7.89)

All values here come from patent US8618290B2.
